The values you see were collected from patent US20190322728A1.

- target.or.system: recombinant purified hTau-P301L (human) (UniProt P10636)
- Sequence (P10636 other isoform, or with tags, fused parts or gaps P301L P301L): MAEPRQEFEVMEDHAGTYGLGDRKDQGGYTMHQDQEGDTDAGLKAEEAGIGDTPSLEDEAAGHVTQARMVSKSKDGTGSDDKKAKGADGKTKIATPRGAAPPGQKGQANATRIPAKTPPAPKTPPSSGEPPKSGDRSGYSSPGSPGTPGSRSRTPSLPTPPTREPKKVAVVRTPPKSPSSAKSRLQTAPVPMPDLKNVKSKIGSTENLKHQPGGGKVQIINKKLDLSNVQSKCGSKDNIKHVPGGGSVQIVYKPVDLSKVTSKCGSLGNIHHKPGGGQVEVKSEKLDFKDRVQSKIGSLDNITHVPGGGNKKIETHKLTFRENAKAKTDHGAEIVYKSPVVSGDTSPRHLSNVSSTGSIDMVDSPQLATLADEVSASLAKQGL
- protocol.description: SPR (Biacore T200), antibody held by a capture antibody on a CM5 chip, hTau-P301L as analyte
endpoint.label: pKd
Reminder that pKd means the negative base-10 logarithm of the concentration expressed in mol/L.

Form: binder = humanized 16B5, version H1L4 (antibody, V domains shown) VH: QVQLVQSGSELKKPGASVKVSCKASGYPFTYHGMDWVRQAPGQGLEWMGWINTYSGVPTYADDFKGRFVFSLDTSVSTAYLQISSLKAEDTAVYFCARRRDFTMDFWGQGTTVTVSS VL: NIVLTQSPSSLAVSLGERATINCKSSQSLLNSRTRKNYLAWFQQKPGQSPKLLIYWASTRESGVPDRFSGSGSGTDFTLTISSLQAEDVAVYYCKQSYTLRTFGGGTKVEIKR ; pKd = 11.50
